Documented Activity across a set of molecules
- Test system: MDA-MB-435
- experiment_notes: Cytotoxicity against human MDA-MB-435 cells assessed as cellular growth at 10 uM by SRB assay
- Assay type: functional
Value expressed in %; do not type the unit.

Answered cases to consult:
>  <smiles_input>
Clc1ccc(-c2nc(-c3cccs3)no2)c(Cl)c1

>  <tested_on>
MDA-MB-435

>  <Activity (%)>
110.83

$$$$
>  <smiles_input>
O=C(NCc1cccnc1)c1sc2cc([N+](=O)[O-])ccc2c1Cl

>  <tested_on>
MDA-MB-435

>  <Activity (%)>
95.22

$$$$
>  <smiles_input>
CC1(C)CC(=O)c2cc3c(N)c(C(=O)Nc4ccc(F)cc4)sc3nc2C1

>  <tested_on>
MDA-MB-435

>  <Activity (%)>
103.15

$$$$
>  <smiles_input>
c1ccc(-c2nc(-c3cccs3)no2)cc1

>  <tested_on>
MDA-MB-435

>  <Activity (%)>
113.41

$$$$
>  <smiles_input>
CC1(C)CCc2cc(-c3ccn(S(=O)(=O)c4ccc(Cl)cc4)n3)ccc2O1

>  <tested_on>
MDA-MB-435

>  <Activity (%)>
85.81

$$$$

Entry CC1(C)CC(=O)c2cc3c(N)c(C(=O)NCc4ccccc4)sc3nc2C1 — recorded Activity = 91.3

Entry CC1(C)CCc2cc(-c3ccn(S(=O)(=O)c4cccc(C(F)(F)F)c4)n3)ccc2O1 — recorded Activity = 97.38

Entry Cc1ccc(Cl)cc1NC(=O)c1sc2nc3c(cc2c1N)C(=O)CCC3 — recorded Activity = -3.04

Entry O=C(NCCc1ccc(Cl)cc1)c1[nH]c2ccccc2c1Cl — recorded Activity = 98.17

Entry CC1(C)CC(=O)c2cc3c(N)c(C(=O)Nc4ccc(Cl)cc4)sc3nc2C1 — recorded Activity = 108.85

Entry Cc1ccc(C2=N/C(=C\c3ccccc3)C(=O)O2)cc1 — recorded Activity = 102.12

---

- Tested on: NCI-H460
- experiment_notes: Cytotoxicity against human NCI-H460 cells assessed as cellular growth at 10 uM by SRB assay
- Format: functional
Documented Activity across a set of compounds
Value expressed in %; do not type the unit.

>  <smiles_input>
O=C(Nc1nc2ccc(Cl)cc2s1)c1ccc(Cl)cc1Cl

>  <observed_value>
100.4

$$$$
>  <smiles_input>
Cc1ccc(NC(=O)c2sc3nc4c(cc3c2N)C(=O)CCC4)c(Br)c1

>  <observed_value>
101.57

$$$$
>  <smiles_input>
O=C1N=C(c2ccccc2)S/C1=C\c1ccc2c(c1)OCO2

>  <observed_value>
96.54

$$$$
>  <smiles_input>
CC1(C)CC(=O)c2cc3c(N)c(C(=O)Nc4ccc(Cl)cc4)sc3nc2C1

>  <observed_value>
108.61

$$$$
>  <smiles_input>
Cc1ccc(C2=N/C(=C\c3ccccc3)C(=O)O2)cc1

>  <observed_value>
109.3

$$$$

Moving on to the next compound.
Entry CC1(C)CC(=O)c2cc3c(N)c(C(=O)NCc4ccccc4)sc3nc2C1 — recorded Activity = 101.02

---

- Test system: SK-OV-3
- experiment_notes: Cytotoxicity against human SKOV3 cells assessed as cellular growth at 10 uM by SRB assay
- Assay type: functional
Documented Activity across a set of molecules
Value expressed in %; do not type the unit.

Answered cases to consult:
>  <smiles_input>
Cc1ccc(NC(=O)c2sc3nc4c(cc3c2N)C(=O)CCC4)c(Br)c1

>  <observed_value>
92.59

$$$$
>  <smiles_input>
CC1(C)CCc2cc(-c3ccn(S(=O)(=O)c4ccc(Cl)cc4)n3)ccc2O1

>  <observed_value>
91.35

$$$$
>  <smiles_input>
CC1(C)CC(=O)c2cc3c(N)c(C(=O)Nc4ccc(F)cc4)sc3nc2C1

>  <observed_value>
109.93

$$$$
>  <smiles_input>
Cc1cc(C)c(NC(=O)c2sc3nc4c(cc3c2N)C(=O)CC(C)(C)C4)c(C)c1

>  <observed_value>
116.6

$$$$

Moving on to the next molecule.
The reported Activity value, SK-OV-3, for COc1ccc2nc(NC(=O)c3ccc(F)cc3)sc2c1 reads 104.34
